Known MIC of a selection of compounds
Test system: E. faecalis (Ef)
Assay: Broth microdilution minimum inhibitory concentration (MIC)
Type: cell-based
Settings: Enterococcus faecalis, read-out: Ef + bicarb MIC
Counter-ions that a name gives are not always drawn.
MEASURED METRIC: MIC

COMPOUND	MEASURED METRIC	TEST VALUE
CCN(Cc1ccc(-n2ccc(NC(=O)N3CCN(C(=O)C4(N)CCC4)CC3)nc2=O)cc1)C1CCC(N)CC1 (stereo not shown) [Compound 315, hydrochloride salt]	MIC	> 32 µg/mL
CC(C)(N)C(=O)N1CCN(C(=O)Nc2ccn(-c3ccc(CN(C4CC4)[C@H]4CC[C@H](N)CC4)cc3)c(=O)n2)CC1 [Compound 348, hydrochloride salt]	MIC	> 32 µg/mL
CC(C)(N)C(=O)N1CCN(C(=O)Nc2ccn(-c3ccc(CN4CCCC(N)CC4)c(F)c3)c(=O)n2)CC1 (stereo not shown) [Compound 334, hydrochloride salt]	MIC	> 32 µg/mL
CC(C)(N)C(=O)N1CCN(C(=O)Nc2ccn(-c3ccc(CN(CC4CC4)C4CCC(N)CC4)c(OC(F)(F)F)c3)c(=O)n2)CC1 (stereo not shown) [Compound 331, hydrochloride salt]	MIC	8 to 32 µg/mL
CC(C)(N)C(=O)N1CCN(C(=O)Nc2ccn(-c3ccc(CN4CCCC(N)CC4)cc3)c(=O)n2)CC1 (stereo not shown) [Compound 365, hydrochloride salt]	MIC	< 8 µg/mL
CC1C[C@@H](NCc2ccc(-n3ccc(NC(=O)N4CCN(C(=O)C(C)(C)N)CC4)nc3=O)cc2)CC[C@@H]1N (stereo partly shown) [Compound 335, hydrochloride salt]	MIC	> 32 µg/mL
Cc1cc(NC(=O)N2CCN(C(=O)C(C)(C)N)CC2)nc(=O)n1-c1ccc(CN2CCC(N)CC2)cc1 [Compound 292, hydrochloride salt]	MIC	> 32 µg/mL

----------
System: P. aeruginosa (Pa)
Test: Broth microdilution minimum inhibitory concentration (MIC)
Assay type: cell-based
Details: Pseudomonas aeruginosa, P. aeruginosa; growth medium supplemented with sodium bicarbonate; read-out: Pa MIC + bicarb
MEASURED METRIC: MIC

> print(dat)
                                    compound     test.value
 1  CN(Cc1ccc(-n2ccc(NC(=O)N3CCN(C(=O)C(C)(C)N)CC3)nc2=O)cc1)[C@H]1CC[C@@H](N)CC1     > 32 µg/mL
 2  C[C@@H]1CCN(CCc2ccc(-n3ccc(NC(=O)N4CCN(C(=O)C(C)(C)N)CC4)nc3=O)cc2)CC[C@H]1N  8 to 32 µg/mL
 3  C[C@](N)(CO)C(=O)N1CCN(C(=O)Nc2ccn(-c3ccc(CN4CCC(N)CC4)c(Cl)c3)c(=O)n2)CC1     > 32 µg/mL
 4  CC(Cc1ccc(-n2ccc(NC(=O)N3CCN(C(=O)C(C)(C)N)CC3)nc2=O)cc1)N[C@H]1CC[C@H](N)C1 (stereo partly drawn)     > 32 µg/mL
 5  CC(C)(N)C(=O)N1CCN(C(=O)Nc2ccn(-c3ccc(C[C@H](N)C(=O)NC4CNC4)cc3)c(=O)n2)CC1     > 32 µg/mL
 6  CC(Cc1ccc(-n2ccc(NC(=O)N3CCN(C(=O)C(C)(C)N)CC3)nc2=O)cc1)N(C)[C@H]1CC[C@@H](N)C1 (stereo partly drawn)     > 32 µg/mL
 7  C[C@@](N)(CO)C(=O)N1CCN(C(=O)Nc2ccn(-c3ccc(CCN4CCCC(N)CC4)cc3)c(=O)n2)CC1 (stereo partly drawn)  8 to 32 µg/mL
 8  CCN(Cc1ccc(-n2ccc(NC(=O)N3CCN(C(=O)C(C)(C)N)CC3)nc2=O)cc1)[C@@H]1CC[C@H](N)C1     > 32 µg/mL
 9  CNC1CCCN(CCc2ccc(-n3ccc(NC(=O)N4CCN(C(=O)C(C)(C)N)CC4)nc3=O)cc2)CC1 (stereo not drawn)     > 32 µg/mL
10  CCN(C[C@H]1C[C@@H](N)C1)C(C)Cc1ccc(-n2ccc(NC(=O)N3CCN(C(=O)C(C)(C)N)CC3)nc2=O)cc1 (stereo partly drawn)     > 32 µg/mL
11  CC(C)(N)C(=O)N1CCN(C(=O)Nc2ccn(-c3ccc(CN4CCC(N)CC4)cc3)c(=O)n2)CC1     > 32 µg/mL
12  CCCN(Cc1ccc(-n2ccc(NC(=O)N3CCN(C(=O)C(C)(C)N)CC3)nc2=O)cc1)[C@H]1CC[C@H](N)CC1  8 to 32 µg/mL
